- system_name: CCR10 (Homo sapiens)
- Construct: expressed in transfected cells
- Sequence (P46092 whole entry): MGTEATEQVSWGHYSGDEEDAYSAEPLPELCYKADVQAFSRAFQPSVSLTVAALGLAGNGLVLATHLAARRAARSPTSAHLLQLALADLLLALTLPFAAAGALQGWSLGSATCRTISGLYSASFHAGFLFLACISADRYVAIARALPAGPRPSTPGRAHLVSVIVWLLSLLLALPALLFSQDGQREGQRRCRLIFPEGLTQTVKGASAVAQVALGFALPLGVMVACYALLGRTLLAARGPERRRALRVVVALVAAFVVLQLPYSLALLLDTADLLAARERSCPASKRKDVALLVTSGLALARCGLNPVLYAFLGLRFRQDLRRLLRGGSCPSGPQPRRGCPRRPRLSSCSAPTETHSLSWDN
- test_description: Figure S2a opioid peptide screen on chemokine receptors
- Type: cell-based
- Design: dose or concentration left out as unconfirmed
- recorded_conditions: replicate 1, read-out: CCR10 activity, ctrl+ = 100
attribute_measured: activation (%)
Give bare numbers, in %.

Example compounds with recorded activation:
INSERT INTO results (compound, endpoint_unit, value_reported) VALUES
  ('CC[C@H](C)[C@H](NC(=O)[C@H](CCCNC(=N)N)NC(=O)[C@H](CCCNC(=N)N)NC(=O)[C@H](CC(C)C)NC(=O)[C@H](Cc1ccccc1)NC(=O)CNC(=O)CNC(=O)[C@@H](N)Cc1ccc(O)cc1)C(=O)N[C@@H](CCCNC(=N)N)C(=O)N1CCC[C@H]1C(=O)N[C@@H](CCCCN)C(=O)N[C@@H](CC(C)C)C(=O)N[C@@H](CCCCN)C(=O)O [Dynorphin 1-13]', '%', -2.25),
  ('CSCC[C@H](NC(=O)[C@H](Cc1ccccc1)NC(=O)CNC(=O)CNC(=O)[C@@H](N)Cc1ccc(O)cc1)C(=O)N[C@@H](CCCNC(=N)N)C(=O)N[C@@H](CCCNC(=N)N)C(=O)N[C@H](C(N)=O)C(C)C [Adrenorphin]', '%', 1.18);

Next up:
activation measured on CC(C)C[C@H](NC(=O)[C@H](CCCCN)NC(=O)[C@H](CCCN=C(N)N)NC(=O)[C@H](C)NC(=O)[C@H](CO)NC(=O)[C@H](CCCCN)NC(=O)[C@H](CCCN=C(N)N)NC(=O)[C@H](C)NC(=O)CNC(=O)[C@@H](NC(=O)[C@H](Cc1ccccc1)NC(=O)CNC(=O)CNC(=O)[C@@H](N)Cc1ccccc1)[C@@H](C)O)C(=O)N[C@@H](C)C(=O)N[C@@H](CC(N)=O)C(=O)N[C@@H](CCC(N)=O)C(=O)O [Nociceptin] = -2.56
